- Target Of Assay: recombinant Human Phosphodiesterase B2 (PDE4B2) (Homo sapiens, UniProt Q07343)
- Sequence (Q07343 1-564 isoform Q07343-2): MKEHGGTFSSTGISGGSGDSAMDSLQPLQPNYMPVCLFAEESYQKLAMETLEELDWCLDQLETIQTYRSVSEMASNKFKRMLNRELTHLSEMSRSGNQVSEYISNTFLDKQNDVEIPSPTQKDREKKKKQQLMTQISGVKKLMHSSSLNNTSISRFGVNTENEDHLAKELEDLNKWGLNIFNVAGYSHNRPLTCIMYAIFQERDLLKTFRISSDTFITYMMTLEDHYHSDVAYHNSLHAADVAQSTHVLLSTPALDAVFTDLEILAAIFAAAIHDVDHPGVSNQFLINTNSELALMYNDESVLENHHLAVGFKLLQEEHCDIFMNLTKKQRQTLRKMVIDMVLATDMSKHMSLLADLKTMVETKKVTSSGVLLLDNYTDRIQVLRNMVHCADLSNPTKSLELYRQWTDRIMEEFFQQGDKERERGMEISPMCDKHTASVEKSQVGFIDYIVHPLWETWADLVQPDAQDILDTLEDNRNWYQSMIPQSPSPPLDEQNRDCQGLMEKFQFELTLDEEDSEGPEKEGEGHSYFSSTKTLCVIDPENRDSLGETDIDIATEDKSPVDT
- Test Method Notes: Human Phosphodiesterase B2 Radiometric Assay (yttrium silicate SPA beads, [3H]cyclic AMP)
- Type: biochemical
- Condition Parameters: recombinant human PDE4B2, radiometric SPA assay, 8 nM [3H]cyclic AMP; read-out: PDE4B2 pIC50 (converted)
Measured Metric: IC50 (pM)

The cases that follow already have their IC50 on record.
CN(C)Cc1cc(O)ccc1-c1cccc(-n2c(=O)n([C@H]3CC[C@@H](NC(=O)c4cn5cc(F)ccc5n4)CC3)c(=O)c3cc(F)cnc32)c1 [Example 104] = 3.16
O=C(N[C@H]1CC[C@@H](n2c(=O)c3cc(F)cnc3n(-c3cccc(-c4ccc(CC5CCNCC5)cc4)c3)c2=O)CC1)c1cn2cc(F)ccc2n1 [Example 345] = 31.6
Cc1cc(C(=O)N[C@H]2CC[C@@H](n3c(=O)c4cc(F)cnc4n(-c4cccc(-c5ccc(CN6CCOCC6)cc5)c4)c3=O)CC2)nn1C [Example 108] = 7.94

a = CCN(CC)CC(=O)N[C@H]1CC[C@@H](n2c(=O)c3cc(F)cnc3n(-c3cccc(-c4ccc(CN5CCN(C(C)C)CC5)cc4)c3)c2=O)CC1 [Example 241]
b = CC(=O)N1CCN(Cc2cc(O)ccc2-c2cccc(-n3c(=O)n([C@H]4CC[C@@H](NCc5cn6cc(F)ccc6n5)CC4)c(=O)c4cc(F)cnc43)c2)CC1 [Example 328]
c = CN(C)C1(C(=O)N[C@H]2CC[C@@H](n3c(=O)c4cc(F)cnc4n(-c4cccc(-c5ccccc5)c4)c3=O)CC2)CC1 [Example 53]
d = CC(=O)N1CCN(Cc2ccc(-c3cccc(-n4c(=O)n([C@H]5CC[C@@H](NC(=O)c6cn7c(n6)CCCC7)CC5)c(=O)c5cc(F)cnc54)c3)cc2)CC1 [Example 218]
Place the items in sequence of falling IC50. Write the labels, ordered according to the request.
a, c, b, d
